experiment: Plasma concentration in human; assay type: ADME, cell-free
measured_parameter: concentration (µM)
Dear colleague, please return just the value in µM, with no unit written.

Incoming: Please report the recorded concentration for Cc1ccnc2c1NC(=O)c1cccnc1N2C1CC1 [NEVIRAPINE] .
Outgoing: 16
